Reference source: patent EP4578444A1

assay: MTT cytotoxicity / cell viability of keratinocytes; type: cell-based; conditions: keratinocytes, throughout the selected concentration range (0.01-0.3 wt.%), threshold value of 70%, read-out: viability of skin and epithelial keratinocytes

{"SMILES ENTRY": "C=C1CC/C=C(\\C)CC[C@@H]2[C@@H]1CC2(C)C", "viability": "> 70%"}
